Origin of values: PubChem BioAssay (NCI)

Measured growth values are reported for all entries that follow.
System: UO-31 renal
ASSAY_SUMMARY: NCI-60 one-dose screen, 48 h (100 = growth as untreated, 0 = no growth, -100 = all killed)
PROTOCOL_CONDITIONS: 10 µM unless noted
Method: Growth inhibition of the UO-31 human tumor cell line is measured as a screen for anti-cancer activity. Cells are grown in 96 well plates and exposed to the test compound for 48 hours. Compounds are tested at a single concentration, which is 10^-5 M for most compounds. The reported endpoint is percent growth (GI% or GIPRCNT), where numbers from 0 - 100% represent growth inhibition, and numbers from -100% - 0 represent cell death. For example, a value of 40 represents 60% growth inhibition. […]
About 83,000 compounds went through this panel and 20% of them were active in at least one assay; those are over-represented in the sample as a whole. Activity calls are given as the source filed them. Rule for the calls: active = growth percent below 10; inactive = the rest.
READOUT_TYPE: growth

- COMPOUND: "O=C1NC(=O)/C(=C/c2ccc(OCc3cc4ccccc4nc3Cl)cc2)S1"
  MEASURED_RESULT: "80.6% (inactive)"
- COMPOUND: "Cc1cc(NS(=O)(=O)c2ccc(-c3cnc(C4CC4)o3)cc2)ccc1I"
  MEASURED_RESULT: "48.7% (inactive)"
- COMPOUND: "COc1ccc2c(C3=C(c4cn(C)c5ccccc45)C(=O)NC3=O)coc2c1"
  MEASURED_RESULT: "37.8% (inactive)"
- COMPOUND: "COc1ccc(OC)c(NC2=C(Cl)C(=O)C(C)=C(C)C2=O)c1"
  MEASURED_RESULT: "92.4% (inactive)"
- COMPOUND: "CN1CCN(Cc2ccc(NC(=O)c3cncc(C#Cc4cnc5ccc(O[C@H]6CCOC6)nn45)c3)cc2C(F)(F)F)CC1"
  MEASURED_RESULT: "-94% (active)"
- COMPOUND: "COc1cnc2c(c1)C(=O)c1c-2n(CCCn2ccnc2)c(=O)c2cc(OC)c(OC)cc12"
  MEASURED_RESULT: "-91.4% (active)"
- COMPOUND: "COc1ccc(CN2C(=O)/C(=C/c3nc(CO)cs3)SC2=S)cc1"
  MEASURED_RESULT: "67% (inactive)"
- COMPOUND: "COc1cc(NC2=C(Cl)C(=O)c3nc(C)ccc3C2=O)cc(OC)c1"
  MEASURED_RESULT: "-94.6% (active)"
- COMPOUND: "C=CCn1c(SCC(=O)Nc2cccc(C(=O)/C=C/c3ccc(Br)cc3)c2)nc2ccccc2c1=O"
  MEASURED_RESULT: "71.2% (inactive)"
- COMPOUND: "COc1ccc2c(c1)oc1c3[nH]c4ccccc4c3c3c(c21)C(=O)N(O)C3=O"
  MEASURED_RESULT: "22.4% (inactive)"
- COMPOUND: "Cc1ccc(NC(=O)c2cc(/C=C/C(=O)NO)cc(C(F)(F)F)c2)cc1Nc1nccc(-c2cccnc2)n1"
  MEASURED_RESULT: "18.8% (inactive)"
- COMPOUND: "C/C(=C(/c1ccc(O)cc1)c1ccc(OCCN2CCCCCC2)cc1)c1ccccc1"
  MEASURED_RESULT: "29.4% (inactive)"
- COMPOUND: "C=CCn1c(SCC(=O)Nc2cccc(C(=O)/C=C/c3ccccc3)c2)nc2ccccc2c1=O"
  MEASURED_RESULT: "67.4% (inactive)"
- COMPOUND: "COc1cc(O)c2c(c1)/C=C/C[C@H](O)[C@H](O)C(=O)/C=C\\C[C@H](C)OC2=O"
  MEASURED_RESULT: "13.1% (inactive)"
- COMPOUND: "CCN1C(=O)N(CC)C2SC(N/N=C/c3cccs3)=NC21 (centres undefined)"
  MEASURED_RESULT: "53.4% (inactive)"
- COMPOUND: "CN1CCN(Cc2ccc(NC(=O)c3cncc(C#Cc4[nH]nc5ncncc45)c3)cc2C(F)(F)F)CC1"
  MEASURED_RESULT: "82.8% (inactive)"
- COMPOUND: "NS(=O)(=O)c1ccc(Nc2nc(N/N=C/c3ccc(C(F)(F)F)cc3)nc(Nc3ccccc3)n2)cc1"
  MEASURED_RESULT: "60.3% (inactive)"
- COMPOUND: "COc1ccc(Oc2ccc(C3CC(c4cc(OC)c(OC)c(OC)c4)=NN3C(C)=O)cc2)cc1 (centres undefined)"
  MEASURED_RESULT: "10.1% (inactive)"
- COMPOUND: "O=C(NCCNc1cc(-c2cn(-c3ccccc3)nc2-c2cccc(O)c2)ccn1)Nc1ccc(Cl)c(C(F)(F)F)c1"
  MEASURED_RESULT: "42.1% (inactive)"
